# TARGET: T1, PfCSS (residues 20 to 290) (P. falciparum, N-linked glycan on Asn88 (seen in the crystal structure))
# T1 chain: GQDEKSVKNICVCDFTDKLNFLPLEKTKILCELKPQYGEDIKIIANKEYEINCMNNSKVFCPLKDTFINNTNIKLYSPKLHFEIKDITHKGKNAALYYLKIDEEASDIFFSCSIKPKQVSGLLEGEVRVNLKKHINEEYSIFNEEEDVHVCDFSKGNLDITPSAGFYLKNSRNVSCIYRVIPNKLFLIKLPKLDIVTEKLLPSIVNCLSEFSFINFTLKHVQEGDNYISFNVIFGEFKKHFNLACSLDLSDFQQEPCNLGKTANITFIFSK
# TEST_DESCRIPTION: BLI
pKd: −log10 of the molar value.

BINDER | pKd
anti-PfCSS nanobody E12 (VHH) VHH: QVQLQESGGGLVQAGGSLRLSCVASTRTFGNYAMAWFRQAPGKEREFVTTISASGGNTGAAPSVKGRFAISRDNAKNTVYLQMNSLKPEDTAVYYCAAASAYYSNDPARYTYWGQGTQVTVSS | 7.92
anti-PfCSS nanobody G5 (VHH) VHH: QVQLQESGGGLVQAGGSLRLSCVASGRTFSSYGMGWFRQAPGKEREFVSAISSDAASRHYANSVKGRFTISRDNAKNTVTLQMSSLTPEDTAVYYCAAVHAYYSNYDGHYDYWGQGTQVTVSS | 8.31
D2 nanobody (anti-PfCSS, inhibitory) (VHH) VHH: QVQLQESGGGLVQAGGSLRLSCAASGRTFSSYAMGWFRQAPGKEREFVAAISYSGSNTYDADSVKGRFAISRDNAKNTVYLQMNSLKPEDTAVYYCAAAGVYSGTYTDTEFDYWGQGTQVTVSS | 8.36
anti-PfCSS nanobody F7 (VHH) VHH: QVQLQESGGGSVQVGDSLSLSCVASGRTFSTYALGWFRQAPGKEREFVAAASANGKVAPVTGSLRDRFSISRDNAKNTMYLQMNNLKPEDTAVYYCAAATGSEVFISTSPNVYDIWGQGTQVTVSS | 8.30
